Please respond with reported NOAEL for every item in the list.
Test system: Rattus norvegicus
Settings: subchronic; duration: 90 days; oral; diet; M/F; Sprague-Dawley; no effects
// note: answer is a bare numeric in mg/kg-day

Exercise: Notebook: pull reported NOAEL for Rattus norvegicus, entry C=CC(=C)CCC=C(C)C [Myrcene]
Solution: 44

Exercise: Notebook: pull reported NOAEL for Rattus norvegicus, entry CSCSCSC [2,4,6-Trithiaheptane]
Solution: 0.2

Exercise: Notebook: pull reported NOAEL for Rattus norvegicus, entry CC1(O)CSC(C)(O)CS1 (centres undefined) [2,5-Dimethyl-1,4-dithiane-2,5-diol]
Solution: 3.14

Exercise: Notebook: pull reported NOAEL for Rattus norvegicus, entry C=CC(C)(O)C/C=C/C(=C)C (centres undefined) [(E)-3,7-Dimethylocta-1,5,7-trien-3-ol]
Solution: 44
